# Assay Details: Plasma pharmacokinetics, LC-MS/MS, non-compartmental analysis
# Type: in vivo, human
# Measurement Context: human, plasma, intravenous, Mean T1/2 ± SD, dose level 50+50 mg/m^2; cycle 1 days 1 and 22 combined
Measured Attribute: half-life (h)
Report the figure in h without appending any unit label.

Please give measured half-life of the following entry: `CN1CC[C@H](c2c(O)cc(O)c3c(=O)cc(-c4ccccc4Cl)oc23)[C@H](O)C1`
5.35

====

# Assay Details: Plasma pharmacokinetics, LC-MS/MS, non-compartmental analysis
# Assay type: in vivo, human
# Measurement Context: human, plasma, intravenous, Mean AUC0-∞ ± SD, dose level 30+50 mg/m^2; cycle 1 days 1 and 22 combined
Measured Attribute: AUC(0-inf) (µM·h)
Write the answer as a number in µM·h, unit excluded.

Give me measured AUC(0-inf), please, for this compound: CN1CC[C@H](c2c(O)cc(O)c3c(=O)cc(-c4ccccc4Cl)oc23)[C@H](O)C1 [Flavopiridol]
4.75

====

# Assay Details: Plasma pharmacokinetics, LC-MS/MS, non-compartmental analysis
# Format: in vivo, human
# Measurement Context: human, plasma, intravenous, Mean CL ± SD, dose level 50+50 mg/m^2; cycle 1 days 1 and 22 combined
Measured Attribute: clearance (mL/min)
I only need the number, in mL/min, no unit after it.

Specify measured clearance for `CN1CC[C@H](c2c(O)cc(O)c3c(=O)cc(-c4ccccc4Cl)oc23)[C@H](O)C1` .
643

====

# Assay Details: Plasma pharmacokinetics, LC-MS/MS, non-compartmental analysis
# Format: in vivo, human
# Measurement Context: human, plasma, intravenous, Mean Vz ± SD, dose level 50+50 mg/m^2; cycle 1 days 1 and 22 combined
Measured Attribute: Vd

Give the reported Vd for this molecule. CN1CC[C@H](c2c(O)cc(O)c3c(=O)cc(-c4ccccc4Cl)oc23)[C@H](O)C1 [Flavopiridol]
317 L

====

# Assay Details: Plasma pharmacokinetics, LC-MS/MS, non-compartmental analysis
# Assay type: in vivo, human
# Measurement Context: human, plasma, intravenous, Mean Cmax ± SD, dose level 30 + 30 mg/m^2; cycle 1 days 1 and 22 combined
Measured Attribute: Cmax (nM)
Answer with a number only, understood to be in nM.

Specify Cmax for `CN1CC[C@H](c2c(O)cc(O)c3c(=O)cc(-c4ccccc4Cl)oc23)[C@H](O)C1` and stop.
1850

====

# Assay Details: Plasma pharmacokinetics, LC-MS/MS, non-compartmental analysis
# Type: in vivo, human
# Measurement Context: human, plasma, intravenous, Mean Cmax ± SD, dose level 30+50 mg/m^2; cycle 1 days 1 and 22 combined
Measured Attribute: Cmax (nM)
Please state the figure in nM; there is no need to write the unit.

Supply reported Cmax belonging to this compound: `CN1CC[C@H](c2c(O)cc(O)c3c(=O)cc(-c4ccccc4Cl)oc23)[C@H](O)C1`
1090

====

# Assay Details: Plasma pharmacokinetics, LC-MS/MS, non-compartmental analysis
# Type: in vivo, human
# Measurement Context: human, plasma, intravenous, Mean Vz ± SD, dose level 30 + 30 mg/m^2; cycle 1 days 1 and 22 combined
Measured Attribute: Vd (L)
Answer in L, number only, no unit symbol.

Answer with reported Vd of `CN1CC[C@H](c2c(O)cc(O)c3c(=O)cc(-c4ccccc4Cl)oc23)[C@H](O)C1`
368

====

# Assay Details: Plasma pharmacokinetics, LC-MS/MS, non-compartmental analysis
# Format: in vivo, human
# Measurement Context: human, plasma, intravenous, Mean T1/2 ± SD, dose level 30+50 mg/m^2; cycle 1 days 1 and 22 combined
Measured Attribute: half-life (h)
Dear colleague, please return just the value in h, with no unit written.

Please supply the value of reported half-life for the item `CN1CC[C@H](c2c(O)cc(O)c3c(=O)cc(-c4ccccc4Cl)oc23)[C@H](O)C1`
3.65

====

# Assay Details: Plasma pharmacokinetics, LC-MS/MS, non-compartmental analysis
# Type: in vivo, human
# Measurement Context: human, plasma, intravenous, Mean Tmax ± SD, dose level 30 + 30 mg/m^2; cycle 1 days 1 and 22 combined
Measured Attribute: Tmax
Write your answer as a measured quantity: the number, then the unit.

Please report the measured Tmax for CN1CC[C@H](c2c(O)cc(O)c3c(=O)cc(-c4ccccc4Cl)oc23)[C@H](O)C1 [Flavopiridol]
31.2 min

====

# Assay Details: Plasma pharmacokinetics, LC-MS/MS, non-compartmental analysis
# Assay type: in vivo, human
# Measurement Context: human, plasma, intravenous, Mean AUC0-∞ ± SD, dose level 30 + 30 mg/m^2; cycle 1 days 1 and 22 combined
Measured Attribute: AUC(0-inf)
State the value with its unit after it.

Specify reported AUC(0-inf) for the molecule shown: CN1CC[C@H](c2c(O)cc(O)c3c(=O)cc(-c4ccccc4Cl)oc23)[C@H](O)C1 [Flavopiridol]
7.78 µM·h

====

# Assay Details: Plasma pharmacokinetics, LC-MS/MS, non-compartmental analysis
# Assay type: in vivo, human
# Measurement Context: human, plasma, intravenous, Mean CL ± SD, dose level 30 + 30 mg/m^2; cycle 1 days 1 and 22 combined
Measured Attribute: clearance (mL/min)
Supply the numeric figure in mL/min, leaving out any unit text.

Give me measured clearance, please, for this compound: `CN1CC[C@H](c2c(O)cc(O)c3c(=O)cc(-c4ccccc4Cl)oc23)[C@H](O)C1`
666

====

# Assay Details: Plasma pharmacokinetics, LC-MS/MS, non-compartmental analysis
# Format: in vivo, human
# Measurement Context: human, plasma, intravenous, Mean Vz ± SD, dose level 30+50 mg/m^2; cycle 1 days 1 and 22 combined
Measured Attribute: Vd

Please supply the value of reported Vd for the item CN1CC[C@H](c2c(O)cc(O)c3c(=O)cc(-c4ccccc4Cl)oc23)[C@H](O)C1 [Flavopiridol]
417 L

====

# Assay Details: Plasma pharmacokinetics, LC-MS/MS, non-compartmental analysis
# Format: in vivo, human
# Measurement Context: human, plasma, intravenous, Mean Tmax ± SD, dose level 30+50 mg/m^2; cycle 1 days 1 and 22 combined
Measured Attribute: Tmax (h)
Expressed in h, but write only the number.

// Input: CN1CC[C@H](c2c(O)cc(O)c3c(=O)cc(-c4ccccc4Cl)oc23)[C@H](O)C1 [Flavopiridol] . Output its Tmax only.
1.18

====

# Assay Details: Plasma pharmacokinetics, LC-MS/MS, non-compartmental analysis
# Type: in vivo, human
# Measurement Context: human, plasma, intravenous, Mean Cmax ± SD, dose level 50+50 mg/m^2; cycle 1 days 1 and 22 combined
Measured Attribute: Cmax
Quote the value and follow it with the unit of measurement.

Identify measured Cmax associated with CN1CC[C@H](c2c(O)cc(O)c3c(=O)cc(-c4ccccc4Cl)oc23)[C@H](O)C1 [Flavopiridol]
2410 nM
